Target: ErbB-2/3 receptor-Ig fusion (human, UniProt P04626 23-652; P04626 23-645; P21860 20-643; P04626 23-645)
Experiment: phage ELISA, competition with soluble ErbB-2/3-Ig
Ends that are not written are not given here.
Endpoint Label: pEC50
Answers are plain numbers, as −log10 of the molar value.

Some entries whose results are on file:
{"Binder": "HRG6 (HRG-β1 177-227 fused to pIII 247, displayed on phage) (ligand, human, UniProt Q02297-6 177-227, looked up, not shown: large carriers, not fully specified (C-terminus); ends and bridges not checked, monovalent phage display; Ala227 restored from pHRG1-g3; also called pHRG6-g3) SHLVKCAEKEKTFCVNGGECFMVKDLSNPSRYLCKCPNEFTGDRCQNYVMA", "Endpoint Label": "pEC50", "Endpoint Result": 7.40}
{"Binder": "HRG5 (HRG-β1 147-244 fused to pIII 247, displayed on phage) (ligand, human, UniProt Q02297-6 147-244, looked up, not shown: large carriers, monovalent phage display; also called pHRG5-g3) YVSSESPIRISVSTEGANTSSSTSTSTTGTSHLVKCAEKEKTFCVNGGECFMVKDLSNPSRYLCKCPNEFTGDRCQNYVMASFYKHLGIEFMEAEELY", "Endpoint Label": "pEC50", "Endpoint Result": 8.33}

[Q] Can you look up the measured pEC50 of HRG4 (HRG-β1 147-227 fused to pIII 247, displayed on phage) (ligand, human, UniProt Q02297-6 147-227, looked up, not shown: large carriers, range 147-227; monovalent phage display; also called pHRG4-g3) YVSSESPIRISVSTEGANTSSSTSTSTTGTSHLVKCAEKEKTFCVNGGECFMVKDLSNPSRYLCKCPNEFTGDRCQNYVMA for me?
[A] 7.42
